Each entry below carries its recorded cell viability.
Test system: MARIMO;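 also: after 48 h exposure read by CellTiter-Glo luminescence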
protocol-notes: cell viability relative to vehicle control; higher = less cytotoxic
measurement-parameters: 10 µM; SRSF2 genotype: SRSF2 wt/wt
Where a name gives a salt, the structure may show the parent alone.
attribute-measured: cell viability (%)

CC(=O)Nc1ccc(OC[C@](C)(O)C(=O)Nc2ccc([N+](=O)[O-])c(C(F)(F)F)c2)cc1 | 105
Cc1cc(SCc2sc(-c3ccc(C(F)(F)F)c(F)c3)nc2C)ccc1OCC(=O)O | 112
Cc1cccc([C@H](C)c2c[nH]cn2)c1C [Dexmedetomidine HCl (Precedex)] | 100
Cc1c([C@H](C)[C@@H]2NC[C@@H](C)C[C@H]2O)ccc2c1C[C@H]1[C@H]2CC=C2C[C@@H](O)CC[C@@]21C | 64.5
CC(C)(C)[C@]1(O)CC2OC(=O)CC23C(=O)OC2OC(=O)[C@H](O)C231 (stereo not given in full) [Bilobalide] | 116
C=C[C@]12CN(C)[C@@H]3[C@H]4CO[C@H](C[C@H]41)[C@]1(C(=O)Nc4ccccc41)[C@@H]32 | 97.5
O=c1[nH]c2ccccc2n1C1CCN(Cc2ccc(-c3[nH]c4cc5ncnc5cc4nc3-c3ccccc3)cc2)CC1 | 76.2
C=CC[C@]1(O)CC[C@H]2[C@@H]3CCC4=CC(=O)CCC4=C3C=C[C@@]21C | 102
CC(C)[C@]12O[C@H]1[C@@H]1O[C@]13[C@]1(O[C@H]1C[C@H]1C4=C(CC[C@@]13C)C(=O)OC4)[C@@H]2O [Triptolide] | 6.31
C[N+]1(C)[C@@H]2C[C@@H](OC(=O)[C@H](CO)c3ccccc3)C[C@H]1[C@@H]1O[C@@H]12 | 87.8
N#CC(C#N)=NNc1ccc(OC(F)(F)F)cc1 | 28
CC(O)(CS(=O)(=O)c1ccc(F)cc1)C(=O)Nc1ccc(C#N)c(C(F)(F)F)c1 (stereo not given) [Bicalutamide (Casodex)] | 102
CC(C)N(CCC(C(N)=O)(c1ccccc1)c1ccccn1)C(C)C (stereo not given) [disopyramide phosphate] | 109
COc1cc([C@@H]2c3cc4c(cc3[C@H](O)[C@H]3COC(=O)[C@H]23)OCO4)cc(OC)c1O | 7.56
Cc1sc2c(c1C)C(c1ccc(Cl)cc1)=N[C@@H](CC(=O)OC(C)(C)C)c1nnc(C)n1-2 | 30.9
CCOc1ccccc1-n1c(C(C)N2CCN(C(=O)COc3ccc(Cl)cc3)CC2)nc2ccccc2c1=O (stereo not given) | 38.8
CC(=O)OCC1=C(C(=O)O)N2C(=O)C(N)C2SC1 (stereo not given) | 108
COc1cc(C2OCC3C(c4cc(OC)c(OC5OC(CO)C(O)C(O)C5O)c(OC)c4)OCC23)cc(OC)c1OC1OC(CO)C(O)C(O)C1O (stereo not given) [Eleutheroside E] | 97.9
O=S(=O)(CC1CS1)c1ccc(Oc2ccccc2)cc1 (stereo not given) | 73.1
O=C(CBr)N1CC([N+](=O)[O-])([N+](=O)[O-])C1 | 101
CCCN1C[C@H](CSC)C[C@@H]2c3cccc4[nH]cc(c34)C[C@H]21 [Pergolide mesylate] | 103
CC1=C[C@]23C(=O)[C@@H](C=C(CO)[C@@H](O)[C@]2(O)[C@H]1O)[C@H]1[C@@H](C[C@H]3C)C1(C)C | 107
CC(C)=CCC[C@](C)(O)[C@H]1CC[C@]2(C)[C@@H]1[C@H](O)C[C@@H]1[C@@]3(C)CC[C@H](O[C@@H]4O[C@H](CO)[C@@H](O)[C@H](O)[C@H]4O)C(C)(C)[C@@H]3CC[C@]12C [20S-Ginsenoside Rh2] | 106
CC(C)NCC(O)c1ccccc1Cl (stereo not given) [Clorprenaline HCL] | 107
CC(=O)O[C@H]1C[C@@H]2CC[C@@H]3[C@H](CC[C@@]4(C)[C@H]3C[C@H]([N+]3(C)CCCCC3)[C@@H]4OC(C)=O)[C@@]2(C)C[C@@H]1[N+]1(C)CCCCC1 [Pancuronium dibromide] | 99.3
COC1CC(OC2CCC3(C)C4CCC5(C)C(C6=CC(=O)OC6)CCC5(O)C4CCC3(O)C2)OC(C)C1OC1OC(CO)C(O)C(O)C1O (stereo not given) | 4.97
CC(C)=CCCC(C)(O)C1CCC2(C)C1C(O)CC1C3(C)CCC(O)C(C)(C)C3C(OC3OC(CO)C(O)C(O)C3O)CC12C [20(S)-Ginsenoside Rh1] | 110
C/C(O)=C(\C#N)C(=O)Nc1cc(Br)ccc1Br | 96.5
O=c1ccc2ccc3occc3c2o1 | 101
COC(=O)C[C@](O)(CCC(C)(C)O)C(=O)O[C@@H]1C(OC)=C[C@]23CCCN2CCc2cc4c(cc2[C@H]13)OCO4 | 4.47
